target: HIV-1 envelope (Env) of virus CNE20 (HIV-1); test: cell-based or functional assay
Each record here notes measured IC50 of viral neutralization (Env.IMC.LucR virus, TZM-BL reporter cells).
Measure name: IC50 of viral neutralization (Env.IMC.LucR virus, TZM-BL reporter cells) (µg/mL)

Binder: L2A1_H58ND (antibody, V domains shown) VH: HVQLVQSGGGVKKIGAAVRISCEVTGYKFMDQLINWVRQAPGQGLEWMGWMNPTYGQVDYSWRFEGRVTMTRDMDTETAFMELRGLRVDDTAVYYCARGPSGENYPFHYWGQGVRVVVSS VL: ASALTQPASMSASPGQSVTISCSGTRHIISAWFQQYPGKPPKLIIFDDDKRPSGVPSRFSASRPGDTASLTISNVQPEDEATYICNTYEFFGGGTRLTVL
Value units: µg/mL
Censoring operator: >
Measured number: 50

Binder: L2A1_H60SN (antibody, V domains shown) VH: HVQLVQSGGGVKKIGAAVRISCEVTGYKFMDQLINWVRQAPGQGLEWMGWMNPTYGQVNYNWRFEGRVTMTRDMDTETAFMELRGLRVDDTAVYYCARGPSGENYPFHYWGQGVRVVVSS VL: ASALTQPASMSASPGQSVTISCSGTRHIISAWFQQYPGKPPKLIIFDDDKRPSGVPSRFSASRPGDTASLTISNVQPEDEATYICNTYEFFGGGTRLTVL
Value units: µg/mL
Censoring operator: =
Measured number: 0.317

Binder: L2A1_H60SA (antibody, V domains shown) VH: HVQLVQSGGGVKKIGAAVRISCEVTGYKFMDQLINWVRQAPGQGLEWMGWMNPTYGQVNYAWRFEGRVTMTRDMDTETAFMELRGLRVDDTAVYYCARGPSGENYPFHYWGQGVRVVVSS VL: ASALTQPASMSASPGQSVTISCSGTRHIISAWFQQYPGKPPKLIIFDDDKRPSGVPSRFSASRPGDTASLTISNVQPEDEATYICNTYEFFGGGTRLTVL
Value units: µg/mL
Censoring operator: =
Measured number: 0.17

Binder: L2A1_H58NA (antibody, V domains shown) VH: HVQLVQSGGGVKKIGAAVRISCEVTGYKFMDQLINWVRQAPGQGLEWMGWMNPTYGQVAYSWRFEGRVTMTRDMDTETAFMELRGLRVDDTAVYYCARGPSGENYPFHYWGQGVRVVVSS VL: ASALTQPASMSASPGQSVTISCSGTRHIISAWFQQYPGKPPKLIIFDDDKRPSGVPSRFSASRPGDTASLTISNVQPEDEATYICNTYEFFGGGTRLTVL
Value units: µg/mL
Censoring operator: >
Measured number: 50

Binder: NVS49-L2A1 (antibody, V domains shown) VH: HVQLVQSGGGVKKIGAAVRISCEVTGYKFMDQLINWVRQAPGQGLEWMGWMNPTYGQVNYSWRFEGRVTMTRDMDTETAFMELRGLRVDDTAVYYCARGPSGENYPFHYWGQGVRVVVSS VL: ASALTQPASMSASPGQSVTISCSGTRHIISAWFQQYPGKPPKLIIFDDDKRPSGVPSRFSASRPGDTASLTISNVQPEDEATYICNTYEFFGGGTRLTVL
Value units: µg/mL
Censoring operator: =
Measured number: 0.05

Binder: L2A1_H58NQ (antibody, V domains shown) VH: HVQLVQSGGGVKKIGAAVRISCEVTGYKFMDQLINWVRQAPGQGLEWMGWMNPTYGQVQYSWRFEGRVTMTRDMDTETAFMELRGLRVDDTAVYYCARGPSGENYPFHYWGQGVRVVVSS VL: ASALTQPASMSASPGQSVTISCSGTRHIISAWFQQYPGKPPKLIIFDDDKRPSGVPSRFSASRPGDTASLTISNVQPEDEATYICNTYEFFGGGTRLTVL
Value units: µg/mL
Censoring operator: >
Measured number: 50

Binder: L2A1_H58NS (antibody, V domains shown) VH: HVQLVQSGGGVKKIGAAVRISCEVTGYKFMDQLINWVRQAPGQGLEWMGWMNPTYGQVSYSWRFEGRVTMTRDMDTETAFMELRGLRVDDTAVYYCARGPSGENYPFHYWGQGVRVVVSS VL: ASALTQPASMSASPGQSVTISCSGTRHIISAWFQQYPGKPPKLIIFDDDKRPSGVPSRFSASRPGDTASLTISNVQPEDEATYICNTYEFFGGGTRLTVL
Value units: µg/mL
Censoring operator: >
Measured number: 50
